- assay_details: Phase 1 food-effect crossover study: plasma PK after single 300 mg oral dose
- Format: in vivo, human
- condition_parameters: human, plasma, po, 300 mg, Treatment B: high-fat nondairy meal 4 h before dosing, read-out: Tmax
recorded_metric: Tmax (h)
Number only, in h; omit the unit.

Query string: Returns the measured Tmax for the input molecule. Input: CN(C)c1cc(CNCC(C)(C)C)c(O)c2c1C[C@H]1C[C@H]3[C@H](N(C)C)C(O)=C(C(N)=O)C(=O)[C@@]3(O)C(O)=C1C2=O
Result string: 2.9

====

- assay_details: Phase 1 food-effect crossover study: plasma PK after single 300 mg oral dose
- Format: in vivo, human
- condition_parameters: human, plasma, po, 300 mg, Treatment B: high-fat nondairy meal 4 h before dosing, read-out: AUC0-24, Geometric LS Mean
recorded_metric: AUC(0-t) (ng·h/mL)
Number only, in ng·h/mL; omit the unit.

Query string: Returns the measured AUC(0-t) for the input molecule. Input: CN(C)c1cc(CNCC(C)(C)C)c(O)c2c1C[C@H]1C[C@H]3[C@H](N(C)C)C(O)=C(C(N)=O)C(=O)[C@@]3(O)C(O)=C1C2=O
Result string: 6200
